system.name: C5aR (Homo sapiens (Human), UniProt P21730)
Sequence (P21730 whole entry): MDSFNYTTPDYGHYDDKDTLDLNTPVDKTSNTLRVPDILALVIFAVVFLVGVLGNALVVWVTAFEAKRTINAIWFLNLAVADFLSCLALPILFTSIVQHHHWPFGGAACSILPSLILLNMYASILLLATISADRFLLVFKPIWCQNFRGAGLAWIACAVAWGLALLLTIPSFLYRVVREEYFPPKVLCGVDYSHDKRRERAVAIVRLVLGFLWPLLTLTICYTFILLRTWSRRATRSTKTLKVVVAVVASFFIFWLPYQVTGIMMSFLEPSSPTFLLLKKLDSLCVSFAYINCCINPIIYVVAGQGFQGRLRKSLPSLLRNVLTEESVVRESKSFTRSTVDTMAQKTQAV
test.description: Calcium mobilization (U937/C5aR or HEK293/C5aR cells, FLIPR)
Assay type: cell-based
run.parameters: agonist human C5a at EC80, FLIPR
Catalogue of IC50 readings, one per entry.
outcome.measure: IC50

>>> observed_result("Cc1cccc(F)c1C(=O)N1C(c2ccc(NC3CCOCC3)cc2)C(C(=O)Nc2ccc3c(cnn3C)c2)C[C@@H]2CCC[C@@H]21 (relative stereo)")
"50 to 500 nM"
>>> observed_result("Cc1ccc(NC(=O)[C@H]2CCCN(c3ccnc(Cl)n3)[C@H]2c2ccc(NC3CCCC3)cc2)cc1C(F)(F)F")
"2000 to 10000 nM"
>>> observed_result("Cc1ccc(NC(=O)[C@H]2CCCN[C@H]2c2ccc(N(c3nccc4scnc34)C3CCCC3)cc2)cc1C(F)(F)F")
"2000 to 10000 nM"
